PROCEDURE_DETAILS: Extracting activity: partition of compound between water phase and organic phase (TLC)
Assay type: physicochemical
CONDITIONS: 2 mg compound in 100 μl diethylether + 100 μl distilled water
ENDPOINT_LABEL: Ratio of content of compound in water phase against organic phase (Comp. Ex. 4)

CO[C@H]1OC2COC(c3ccccc3)O[C@H]2C(O)C1NS(=O)(=O)c1ccc(C)cc1 (some centres unmarked) : 1/15
CO[C@H]1OC(COCc2ccccc2)[C@H](N=[N+]=[N-])CC1NS(=O)(=O)c1ccc(C)cc1 (some centres unmarked) : 1/4
CC(=O)Oc1ccc(OC(C)=O)c(OC(C)=O)c1 : 0/100

Could you now consider this next compound?
Given the entry Cc1ccc(S(=O)(=O)O[C@@H]2C(C)O[C@@H](OCc3ccccc3)C3OC(=O)OC32)cc1 (some centres unmarked) , report its measured Ratio of content of compound in water phase against organic phase (Comp. Ex. 4).
0/100
